# Tested on: Hs578T complex spheroid growth, percent test/control
# ASSAY_PROTOCOL: Anticancer human tumor Hs578T cell line growth inhibition [AhR];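 note: luminescent viability signal as a proxy for spheroid growth; spheroids exposed to agents for one week after three days of growth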
# TEST_CONTEXT: second compound 0.316 µM; first compound 0.316 µM; active compounds read low
Some molecules, each annotated with its measured viability, T/C.

Worked examples, 2 molecules total:
MOLECULE	SYSTEM_TESTED	VALUE_MEASURED
Nc1ccccc1NC(=O)c1ccc(CNC(=O)OCc2cccnc2)cc1 + CC(CO)NC(=O)c1cc(-c2ccc(Cl)cc2)nn(-c2cnn(C)c2)c1=O	Hs578T complex spheroid growth, percent test/control	111%
CC1COCCN1c1cc(C2(S(C)(=N)=O)CC2)nc(-c2ccnc3[nH]ccc23)n1 (stereo not drawn) + Cc1ccccc1N=Nc1ccc(NC(=O)c2ccnn2C)c(C)c1	Hs578T complex spheroid growth, percent test/control	100%

Result for NS(=O)(=O)OCC1CC(n2ccc3c(NC4CCc5ccccc54)ncnc32)CC1O (stereo not drawn) + CC(CO)NC(=O)c1cc(-c2ccc(Cl)cc2)nn(-c2cnn(C)c2)c1=O , tested on Hs578T complex spheroid growth, percent test/control, viability, T/C: 75%
